- experimental system: CAR (CYP2B1 reporter) (Rattus norvegicus, UniProt Q9QUS1)
- Sequence (Q9QUS1 whole entry): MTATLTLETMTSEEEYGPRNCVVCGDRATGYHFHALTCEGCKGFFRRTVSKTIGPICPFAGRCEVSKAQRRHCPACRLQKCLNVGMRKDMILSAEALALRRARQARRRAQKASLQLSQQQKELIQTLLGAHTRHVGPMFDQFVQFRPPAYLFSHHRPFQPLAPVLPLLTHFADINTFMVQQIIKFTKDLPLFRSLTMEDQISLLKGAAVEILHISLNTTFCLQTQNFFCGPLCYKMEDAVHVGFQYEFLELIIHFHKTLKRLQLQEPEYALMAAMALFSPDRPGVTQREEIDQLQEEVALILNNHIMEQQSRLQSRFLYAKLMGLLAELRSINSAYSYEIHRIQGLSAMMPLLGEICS
- measurement description: Activation of rat CAR expressed in rat hepatocytes coexpressing CYP2B1 at 100 uM after 24 hrs by dual luciferase reporter gene assay relative to control
- Type: ADME, cell-based, Hepatocyte
- test conditions: rat hepatocytes expressing rat CAR and coexpressing CYP2B1, read-out: FC
result type: fold induction at 24 h, 100 µM
# respond with the number and nothing more

Provide fold induction at 24 h, 100 µM value for the following molecule: CCC1(c2ccccc2)C(=O)NC(=O)NC1=O [PHENOBARBITAL SODIUM]
9

====

- experimental system: PXR (CYP3A4 reporter) (Rattus norvegicus)
- measurement description: Activation of rat PXR expressed in rat hepatocytes coexpressing CYP3A4 at 10 uM after 24 hrs by dual luciferase reporter gene assay relative to control
- test conditions: rat hepatocytes expressing rat PXR and coexpressing CYP3A4
result type: fold induction at 24 h, 10 µM

Retrieve fold induction at 24 h, 10 µM on PXR (CYP3A4 reporter) (Rattus norvegicus); query CC(=O)[C@H]1[C@H](C#N)C[C@H]2[C@@H]3CC=C4C[C@@H](O)CC[C@]4(C)[C@H]3CC[C@@]21C [PREGNENOLONE CARBONITRILE]
9

====

- experimental system: PXR (CYP3A4 reporter) (Rattus norvegicus, UniProt Q9R1A7)
- Sequence (Q9R1A7 whole entry): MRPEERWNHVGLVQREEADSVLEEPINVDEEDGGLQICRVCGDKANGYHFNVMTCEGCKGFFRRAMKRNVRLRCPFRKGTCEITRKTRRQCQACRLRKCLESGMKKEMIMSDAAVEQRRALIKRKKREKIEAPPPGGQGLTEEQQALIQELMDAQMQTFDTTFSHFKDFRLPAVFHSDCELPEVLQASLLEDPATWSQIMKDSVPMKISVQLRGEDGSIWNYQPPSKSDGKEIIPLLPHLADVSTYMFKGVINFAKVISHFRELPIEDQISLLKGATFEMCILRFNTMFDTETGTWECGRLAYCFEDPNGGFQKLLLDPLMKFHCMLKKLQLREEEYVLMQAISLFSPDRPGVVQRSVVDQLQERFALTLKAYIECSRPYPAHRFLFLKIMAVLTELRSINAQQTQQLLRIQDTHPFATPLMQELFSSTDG
- measurement description: Activation of rat PXR expressed in human HepG2 cells coexpressing CYP3A4 at 0.1 to 10 uM after 24 hrs by dual luciferase reporter gene assay relative to control
- test conditions: human HepG2 cells expressing rat PXR and coexpressing CYP3A4
result type: fold induction at 24 h, 10 µM
I'd appreciate a reply containing only the number, no unit.

Complete the entry with fold induction at 24 h, 10 µM for "CC(=O)[C@H]1[C@H](C#N)C[C@H]2[C@@H]3CC=C4C[C@@H](O)CC[C@]4(C)[C@H]3CC[C@@]21C"
19
